B1: Osa-1-4 twister ribozyme (parent)
chain: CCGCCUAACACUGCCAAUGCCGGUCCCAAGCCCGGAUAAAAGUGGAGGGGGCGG

- Variants of: B1
- MEASUREMENT DESCRIPTION: self-cleavage, relative activity (ratio to wild type); higher = more cleavage; co-transcriptional
ASSAY ENDPOINT: self-cleavage
Answers are plain numbers.

Use these answered entries as a reference point.
* A10U A41G | 0.04
* G13A G45U | 0.02
* A28G C14A | 0.05
* G51C U37C | 0.14
* C9G G23U | 0.04

List self-cleavage for every entry below, keeping the order given.
1. A38U C14G
2. G30U U43A
3. A38C G23U
4. A41C U24G
5. G23U G49C

1. 0.11
2. 0.04
3. 0.07
4. 0.03
5. 0.03

All values here come from the RNAGym collection of RNA variant scans (doi:10.1002/anie.201605470).
